The measured values listed here are drawn from paper PMC5607274.

target-under-test: human recombinant Yes [a.a. 2–543 (end)] (Homo sapiens, UniProt P07947)
Construct: human recombinant Yes [a.a; 2–543 (end)]; purchased BPS Bioscience 40488
Sequence (P07947 2-543): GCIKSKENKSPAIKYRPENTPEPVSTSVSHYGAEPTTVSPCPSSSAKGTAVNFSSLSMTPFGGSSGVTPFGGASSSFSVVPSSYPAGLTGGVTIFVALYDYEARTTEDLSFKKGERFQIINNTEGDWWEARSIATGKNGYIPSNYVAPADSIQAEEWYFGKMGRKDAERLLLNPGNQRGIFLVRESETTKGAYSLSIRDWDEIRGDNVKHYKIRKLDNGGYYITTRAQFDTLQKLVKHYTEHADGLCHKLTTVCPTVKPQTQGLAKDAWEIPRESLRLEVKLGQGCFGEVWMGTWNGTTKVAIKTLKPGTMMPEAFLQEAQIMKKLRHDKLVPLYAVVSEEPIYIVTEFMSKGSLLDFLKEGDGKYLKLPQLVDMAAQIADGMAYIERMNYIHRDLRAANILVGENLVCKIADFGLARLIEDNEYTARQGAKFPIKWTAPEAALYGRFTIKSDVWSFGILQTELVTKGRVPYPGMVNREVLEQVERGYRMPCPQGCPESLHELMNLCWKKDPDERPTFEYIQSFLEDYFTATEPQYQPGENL
measurement-description: ADP-Glo kinase assay, inhibition rates of Yes phosphorylation activity (first and second screening)
Type: biochemical
applied-conditions: first screening; mean of n = 4 wells; 10 μmol L−1 compound
I'd be grateful if you could share measured First screening IR (inhibition rate) for these entries.
One number for each entry, in %.

Below: 4 molecules and their reported First screening IR (inhibition rate).
Cl.N#Cc1ccc(-c2cc(-c3ccccc3)c3cc(Cl)ccc3n2)cc1    58
CN(C)C(=O)Sc1ccc(NC(=O)COc2ccc(F)cc2)cc1    -17
COc1ccc2c(c1)CC/C(=C\c1ccc(Cl)c(Cl)c1)C2=O    30
c1cc(-c2nc3c(c(N4CCCC(N5CCCC5)C4)n2)CCC3)ccn1 (centres unmarked)    56

// for each molecule below, give its First screening IR (inhibition rate)
1. CCC(C)(C)C1C/C(=C/c2ccccc2Br)c2nc3ccccc3c(C(=O)O)c2C1 (centres unmarked)
2. CCn1ncc2c(C(=O)OC)cc(-c3ccccc3)nc21
3. CCC1CN(C(=O)OCc2ccccc2)C(CC)CN1C(=O)CCc1cnn(C)c1 (centres unmarked)

Out:
1: 23; 2: 11; 3: -2

// for each molecule below, give its First screening IR (inhibition rate)
1. COc1ccc(Cl)cc1NC(=O)CN(C)c1nc(CN2CCOCC2)nc2sc3c(c12)CCC(C)C3 (centres unmarked)
2. C(=C\c1ccccc1)/CN1CCN(c2ncnc3c2cnn3Cc2ccccc2)CC1
3. O=C(NCCSCc1ccccc1)Nc1ccc(NC(=O)c2ccco2)cc1
4. O=C(c1cc(C2CC2)[nH]n1)N1CCC(=Cc2cc(Cl)ccc2Cl)CC1
5. O=C(NCc1cccc(C(F)(F)F)c1)c1n[nH]c(=O)c2ccccc12
6. Cc1ccccc1CN1CCN(CC(=O)c2cc(C)n(CC3CCCO3)c2C)CC1 (centres unmarked)
7. Cc1ccccc1Nc1nc(N)nc(CN(C)Cc2ccc(C(C)(C)C)cc2)n1
8. Cc1ccc(S(=O)(=O)N(C)C2CCS(=O)(=O)C2)cc1C (centres unmarked)

Out:
[7, 0, 44, 2, 6, 15, 5, 2]

// for each molecule below, give its First screening IR (inhibition rate)
1. CNC(=O)c1cnc(/C=C/c2cccnc2)s1
2. CC(C)(CNC(=O)c1cccc(N2CC(O)=C(c3nc4ccccc4s3)C2=N)c1)N1CCOCC1
3. O=S(=O)(N/N=C/c1ccc(N(c2ccccc2)c2ccccc2)cc1)c1ccc(Br)cc1
4. O=C(Nc1cc(C(F)(F)F)ccc1N1CCCCC1)c1ccc(Cl)c(S(=O)(=O)Nc2ccccc2C(=O)Nc2cc(C(F)(F)F)ccc2N2CCCCC2)c1
5. Oc1ccc(F)cc1C1=NNC(c2cc(Br)cc3c2OCOC3)C1 (centres unmarked)
6. Cc1ccc(C)c(C(=O)CCC(=O)NC(C)c2nc3ccccc3[nH]2)c1 (centres unmarked)

Out:
[5, 8, 27, 44, -12, 1]

----------
target-under-test: human recombinant Yes [a.a. 2–543 (end)] (Homo sapiens, UniProt P07947)
Construct: human recombinant Yes [a.a; 2–543 (end)]; purchased BPS Bioscience 40488
measurement-description: ADP-Glo kinase assay, inhibition rates of Yes phosphorylation activity (first and second screening)
Type: biochemical
applied-conditions: first screening; mean of n = 4 wells; 10 μmol L−1 compound
Protocol: All inhibitory assays of the phosphorylation activity of Yes were performed in accordance with the Promega Technical Manual for the ADP-Glo™ Kinase Assay (Fitchburg, WI, USA. Catalog number: V9102). The human recombinant Yes [a.a. […] The screening was conducted in three steps consisting of the first screening, the second screening, and the IC50 determination, as can be illustrated in Fig. 1b. First, we determined the inhibition rates of the 1,991 compounds. […]
I'd be grateful if you could share measured First screening IR (inhibition rate) for these entries.
Numbers only, in %.

// for each compound below, give its First screening IR (inhibition rate)
1. O=C(CSc1nnc(-c2ccc3c(c2)OCO3)n1-c1ccccc1)c1ccc[nH]1
2. COc1ccc(S(=O)(=O)N[C@@H](C)C(=O)N2CC=C(c3c(OC)cc(OC)cc3OC)CC2)cc1
3. c1ccc2nc(Nc3cn[nH]c3)cnc2c1
4. CC(=O)c1cccc(COC(=O)c2n[nH]c3c2CCCC3)c1
5. Cc1cc(Br)ccc1NC(=O)Cn1nc(C)c(S(=O)(=O)N2CCC(C)CC2)c1C

Out:
1: 7; 2: 0; 3: 45; 4: -3; 5: -17
